Recorded melting point values for a group of molecules are listed next.

{"MOLECULE": "N#Cc1c(-c2ccc(F)cc2)cc(-c2ccc(Cl)cc2Cl)nc1Cl", "melting point": "181 to 182 °C"}
{"MOLECULE": "N#Cc1c(-c2ccc(F)cc2)cc(-c2ccc(Cl)cc2Cl)nc1NCc1ccc2c(c1)OCO2", "melting point": "149 to 151 °C"}
{"MOLECULE": "CCOC(=O)COc1nc(-c2ccc(Cl)cc2Cl)cc(-c2ccc(F)cc2)c1C#N", "melting point": "119 to 121 °C"}
{"MOLECULE": "N#Cc1c(-c2ccc(F)cc2)cc(-c2ccc(Cl)cc2Cl)nc1OCC(=O)NN=Cc1ccc(F)cc1", "melting point": "219 to 221 °C"}
{"MOLECULE": "N#Cc1c(-c2ccc(F)cc2)cc(-c2ccc(Cl)cc2Cl)[nH]c1=O", "melting point": "276 to 277 °C"}
{"MOLECULE": "N#Cc1c(-c2ccc(F)cc2)cc(-c2ccc(Cl)cc2Cl)nc1NN=Cc1ccc([N+](=O)[O-])cc1 [Compound 21b]", "melting point": "281 to 283 °C"}
{"MOLECULE": "CC1=NN(c2nc(-c3ccc(Cl)cc3Cl)cc(-c3ccc(F)cc3)c2C#N)C(=O)C1", "melting point": "246 to 248 °C"}
{"MOLECULE": "N#Cc1c(-c2ccc(F)cc2)cc(-c2ccc(Cl)cc2Cl)nc1NN=Cc1ccccc1Br [Compound 21a]", "melting point": "226 to 228 °C"}
{"MOLECULE": "Nc1nnc2[nH]c(-c3ccc(Cl)cc3Cl)cc(-c3ccc(F)cc3)c1-2", "melting point": "309 to 311 °C"}
